Catalogue of RP-LC retention time values
- Experimental protocol: gradient 5% acetonitrile 3 min, to 50% in 2 min, to 85% in 15 min, held 3 min, 100 µL/min
- Details: column: Zorbax Extend-C18 2.1 x 50 mm; eluents: water / acetonitrile, 0.1% formic acid
Please respond with the number in s and leave the unit unwritten.

Worked examples, 5 compounds total:
INSERT INTO assay_data (compound, metric, recorded_value) VALUES
  ('Cc1cc(C)n2nc(SCC(=O)NCc3ccccc3)nc2n1', 'RP-LC retention time', 705),
  ('CCc1nnc2nc(N3CCN(C(=O)c4ccc5c(c4)OCO5)CC3)cc(C)n12', 'RP-LC retention time', 611),
  ('CCc1ccccc1NC(=O)N1CCC(n2cnnc2C2CC2)C1 (stereo not given)', 'RP-LC retention time', 628),
  ('CCc1ccc(S(=O)(=O)N2CCc3nc(-c4ccc(OC)cc4)ncc3C2)cc1', 'RP-LC retention time', 1140),
  ('O=C(CCNc1c(-c2cccc(F)c2)nc2cnccn12)NCc1cc(F)cc(F)c1', 'RP-LC retention time', 769);

Sample CCc1nc(-c2csc(S(=O)(=O)N3CCCC(C(=O)N4CCc5ccccc54)C3)c2)no1 (stereo not given) — what was its RP-LC retention time? 1110

Reported RP-LC retention time for Cc1nc(-c2ccc3c(c2)CCN3C(=O)COc2ccc(Cl)cc2)cs1 : what is it? 1080

GET /values?readout=RP-LC retention time&item= Cn1c(=O)c(-c2ccc(C(=O)NC3CCCCC3)cc2)nc2cccnc21 882

Please look up its RP-LC retention time: CCOCCCNC(=O)c1c(OCC)cc(=O)n2c1CCCCC2 621

Please look up its RP-LC retention time: Cc1cc(C)cc(N2C=C(C(=O)N3CCOCC3)S(=O)(=O)c3ccccc32)c1 826

* * *

- Experimental protocol: gradient 5% acetonitrile 3 min, to 50% in 2 min, to 85% in 15 min, held 3 min, 100 µL/min
- Details: column: Zorbax Extend-C18 2.1 x 50 mm; eluents: water / acetonitrile, 0.1% formic acid
Define the label as t when RP-LC retention time is strictly less than 1000 s and as f in all remaining cases.

INSERT INTO results (molecule, classification) VALUES
  ('c1ccc(N2CCN(c3ncnc4scc(-c5cccs5)c34)CC2)cc1', 'f');

Please look at the following molecule next.
Criterion: RP-LC retention time strictly below 1000 s. Is it met by Cc1ccc(Nc2c(-c3ccc(N4CCOCC4)cc3)nc3ccc(Cl)cn23)cc1 ? t

* * *

# reported RP-LC retention time; entries follow
- Experimental protocol: gradient 5% acetonitrile 3 min, to 50% in 2 min, to 85% in 15 min, held 3 min, 100 µL/min
- Details: column: Zorbax Extend-C18 2.1 x 50 mm; eluents: water / acetonitrile, 0.1% formic acid
Return type: number; implicit unit s.

For the compound shown here, COc1ccccc1OCCC1CCN(S(=O)(=O)Cc2ccccc2F)C1 (stereo not given) , give the reported RP-LC retention time. 1030

Find the recorded RP-LC retention time belonging to Cc1ccc(-c2cc3c4nnc(CCC(=O)N5CCN(C(=O)c6ccco6)CC5)n4ccn3n2)cc1C and report it. 759

* * *

This section presents compounds with their documented RP-LC retention time values.
- Experimental protocol: gradient 5% acetonitrile 3 min, to 50% in 2 min, to 85% in 15 min, held 3 min, 100 µL/min
- Details: column: Zorbax Extend-C18 2.1 x 50 mm; eluents: water / acetonitrile, 0.1% formic acid

Here's what some known entries look like.
INSERT INTO results (compound, recorded_value) VALUES
  ('COc1cccc(OC)c1C(=O)Nc1nc(-c2ccc3c(c2)NC(=O)C(C)O3)c(C)s1 (stereo not drawn)', '866 s'),
  ('CN(C)C(=O)c1cc2c(s1)CCC(C(=O)NC1CCCCCC1)C2 (stereo not drawn)', '751 s');

From here, focus on the item given below.
For the compound shown here, COc1ccc(C(O)Cn2ccn3nc(-c4ccc(C)c(C)c4)cc3c2=O)cc1OC (stereo not drawn) , give the reported RP-LC retention time. 881 s
